Test summary: Viability qHTS for spleen associated tyrosine kinase inhibitor (SYKi) drug resistant MV4-11 cells (AID 1963824); further: nearly all actives have a fitted effect of over 35% in size
Experimental parameters: SYKi-resistant MV4-11 viability, CellTiter-Glo, 72 h; series mostly up to 45 µM
Results filed as inconclusive are left out. Calls of active or inactive are those of the source. The call rests on the fitted dose curve; in most records, active means well fitted cell-killing curve with a large enough effect; inconclusive means small, poorly fitted or top-dose-only effect, or effect the other way; inactive means no such curve, though single readings can be large or run the other way. Peptide text beside a SMILES is read from it. * marks the point of attachment. Cbz = O=C(OCc1ccccc1)*
Possible outcomes: active, inactive

Compound	Category
O=C(OCC(O)CO[C@@H]1O[C@H](C(=O)O)[C@@H](O)[C@H](O)[C@H]1O)c1ccccc1 (stereo not given in full)	inactive
COc1ccc(CCC(C)=O)cc1	inactive
O=[N+]([O-])c1cccc2[nH]c(CNc3nc(N4CCOCC4)nc4c3ncn4-c3ccsc3)nc12	active
Nc1cc(=O)[nH]c(N)n1	inactive
CCOC(=O)c1ccc(N)cc1	inactive
CC1C(O)C(O)C2C(C(=O)OCCc3ccc(O)cc3)=COC(O[C@@H]3O[C@H](CO)[C@@H](O)[C@H](O)[C@H]3O)C12 (stereo not given in full)	inactive
CN(c1ccc(NC(=O)Nc2ccccc2)cc1)S(=O)(=O)c1cnn(-c2ccc(F)cc2)c1	active
CC(C)C[C@H](NC(=O)[C@@H]1O[C@H]1C(=O)O)C(=O)NCCCCN=C(N)N	inactive
O=C(/C=C/c1ccc(O)cc1)OC[C@]12O[C@H]1[C@@H](O)[C@@H]1C=CO[C@@H](O[C@@H]3O[C@H](CO)[C@@H](O)[C@H](O)[C@H]3O)[C@@H]12	inactive
Nc1ccc(-n2nc(C(F)(F)F)cc2C(F)(F)F)cc1	inactive
O=C1C(=O)c2ccccc2C(O)=C1C1CCC(c2ccc(Cl)cc2)CC1 (stereo not given)	inactive
Nc1ncnc2c1nc(Cl)n2C1OC2COP(=O)(O)OC2C1O (stereo not given)	active
Cn1cnc2c1c(=O)[nH]c(=O)n2C	inactive
CC(=O)O[C@@H]1[C@@H](OC(C)=O)[C@H](C)O[C@@H](O[C@H]2[C@@H]3C=CO[C@@H](O[C@@H]4O[C@H](CO)[C@@H](O)[C@H](O)[C@H]4O)[C@@H]3[C@@]3(CO)O[C@@H]23)[C@@H]1OC(=O)/C=C/c1ccccc1	active
C[C@@H](O)[C@H]1C(=O)N2C(C(=O)O)=C([C@H]3CCCO3)S[C@H]12	inactive
CC(=O)Nc1nc(C)c(-c2nc(N3CCCC(O)C3)no2)s1 (stereo not given)	active
COC(=O)C1=COC(OC2OC(CO)C(O)C(O)C2O)C2C(C)C(OC(C)=O)C(OC(=O)c3ccccc3)C12 (stereo not given)	inactive
CC(C)C[C@@H](C=O)NC(=O)[C@H](CC(C)C)NC(=O)[C@H](CC(C)C)NC(=O)OCc1ccccc1 (Cbz-Leu-Leu-Leu-aldehyde)	active
NC(=O)c1ccccc1Nc1ccnc(Nc2cccc(O)c2)n1	active
C(#Cc1cccc(CN2CCOCC2)c1)CCN1CCCCC1	inactive
CC(=O)/C=C/C=C1/C2CCC(C2)C1(C)C (stereo not given)	inactive
O=C(O)CCNc1cc(N2CCc3ccccc3CC2)nc(-c2ccccn2)n1	inactive
C/C=C1\NC(=O)[C@H]2CSSCC/C=C\[C@H](CC(=O)N[C@H](C(C)C)C(=O)N2)OC(=O)[C@H](C(C)C)NC1=O	active
Cc1cccc(C)c1NC(=O)CN1CCN(CCCC(c2ccc(F)cc2)c2ccc(F)cc2)CC1	active
CC(C)=CCC(O)/C(C)=C/CO[C@@H]1O[C@H](CO)[C@@H](O)[C@H](O)[C@H]1O (stereo not given in full)	inactive
CCc1cc(C(N)=O)ccc1-n1nc(C(C)C)c2c(-n3cnc(-c4cnn(C)c4)c3)ccnc21	active
CC1(C(=O)O)CCCC2(C)C3CCC4CC3(CCC12)CC4C(=O)O (stereo not given)	inactive
CCN(c1cc(C#CCN2CCOCC2)cc(C(=O)NCc2c(C)cc(C)[nH]c2=O)c1C)C1CCC(N(C)CCOC)CC1 (stereo not given)	inactive
COc1cc(N)c(Cl)cc1C(=O)NC1CCN(Cc2ccccc2)CC1	inactive
CCOc1ccccc1OCC1CNCCO1 (stereo not given)	inactive

* * *

Test summary: Viability qHTS for spleen associated tyrosine kinase inhibitor (SYKi) drug resistant MV4-11 cells (AID 1963824); further: nearly all actives have a fitted effect of over 35% in size
Experimental parameters: SYKi-resistant MV4-11 viability, CellTiter-Glo, 72 h; series mostly up to 45 µM
Inconclusive results are not listed. Activity calls are given as the source filed them. The call rests on the fitted dose curve; in most records, active means well fitted cell-killing curve with a large enough effect; inconclusive means small, poorly fitted or top-dose-only effect, or effect the other way; inactive means no such curve, though single readings can be large or run the other way.
Classes used: active, inactive

In [3]: df
Out[3]:
                                    compound  category
 0  CCc1ccc(CCOc2ccc(CC3SC(=O)NC3=O)cc2)nc1 (configuration not stated)  inactive
 1  Cc1oc(=O)oc1CN1CCN(c2cc3c(cc2F)c(=O)c(C(=O)O)c2n3C(C)S2)CC1 (configuration not stated)    active
 2  C=C(C(=O)O)[C@@H]1CC[C@@]2(C)CCC[C@@](C)(O)[C@@H]2C1  inactive
 3  OC[C@H]1OC(O)C[C@@H](O)[C@H]1O (some centres not stated)  inactive
 4             Nc1nc(N)nc(-c2cc(Cl)ccc2Cl)n1  inactive
 5  CC1(C)O[C@@H]2[C@@H](CO[C@@]3(COS(N)(=O)=O)OC(C)(C)O[C@@H]23)O1  inactive
 6   CCOC(=O)c1ncn2c1CN(C)C(=O)c1cc(F)ccc1-2  inactive
 7  O=C(c1cn(Cc2cncn2Cc2ccc(Br)cc2)cc1-c1cccc2ccccc12)N1CCOCC1    active
 8  C[C@]12CCC(=O)C=C1CC[C@@H]1[C@@H]2C(=O)C[C@@]2(C)[C@H]1CC[C@]2(O)C(=O)CO  inactive
 9  Cc1c(C(=O)Nc2ccc(Oc3ccnc4[nH]cc(-c5ccccc5)c34)c(F)c2)c(=O)n(-c2ccc(F)cc2)n1C    active
10  Cc1ccc(NC(=O)c2ccc(CN3CC[C@H](N(C)C)C3)c(C(F)(F)F)c2)cc1Nc1nccc(-c2cncnc2)n1    active
11  CC(C)[C@H]1C(=O)N[C@@H](CCCN=C(N)N)C(=O)NCC(=O)N[C@@H](CC(=O)O)C(=O)N[C@H](Cc2ccccc2)C(=O)N1C  inactive

* * *

Test summary: Viability qHTS for spleen associated tyrosine kinase inhibitor (SYKi) drug resistant MV4-11 cells (AID 1963824); further: nearly all actives have a fitted effect of over 35% in size
Experimental parameters: SYKi-resistant MV4-11 viability, CellTiter-Glo, 72 h; series mostly up to 45 µM
Records with an inconclusive call do not appear. The source made the active and inactive calls. The call rests on the fitted dose curve; in most records, active means well fitted cell-killing curve with a large enough effect; inconclusive means small, poorly fitted or top-dose-only effect, or effect the other way; inactive means no such curve, though single readings can be large or run the other way.
Outcomes: true = active, false = inactive

Molecule	Category
C#C[C@]1(O)CC[C@H]2[C@@H]3CCC4=Cc5oncc5C[C@]4(C)[C@H]3CC[C@@]21C	true
COc1cc(NC(C)CCCN)c2ncccc2c1 (centres undefined)	true
CC(=O)OC[C@H]1O[C@@](COC(C)=O)(O[C@H]2O[C@H](COC(C)=O)[C@@H](OC(C)=O)[C@H](OC(C)=O)[C@H]2OC(C)=O)[C@@H](OC(C)=O)[C@@H]1OC(C)=O	false
COCc1c(Cl)ccc2c1CC[C@H]2c1ncc[nH]1	false
CN(C)Cc1ccc(S(=O)(=O)n2ccc(/C=C/C(=O)NO)c2)cc1	true
CCCCn1c(=O)n(Cc2ccccc2F)c(=O)c2[nH]c(Cc3ccc(NC(C)=O)cc3)nc21	true
Cc1cc(-c2cc(OC(=O)c3ccccc3)ccc2Cl)cc2nnc(Nc3ccc(OCCN4CCCC4)cc3)nc12	true
C[C@@H]1COC(Nc2ccc3ncnc(Nc4ccc(OCc5nccs5)c(Cl)c4)c3c2)=N1	true
COc1cc(C(C)=O)ccc1O[C@@H]1O[C@H](CO[C@@H]2OC[C@@H](O)[C@H](O)[C@H]2O)[C@@H](O)[C@H](O)[C@H]1O	false
NC(=O)c1ncn([C@@H]2O[C@H](CO)[C@@H](O)[C@H]2O)c1N	false
CC(C)=C[C@@H]1[C@H](CO[C@@H]2O[C@H](CO)[C@@H](O)[C@H](O)[C@H]2O)C1(C)C	true
O=C(O)c1cn(C2CC2)c2cc(N3CCNCC3)c(F)cc2c1=O	false
CC(=O)c1c(O)cc2cccc3c2c1CC(C)(O)O3 (centres undefined)	false
CCOC(=O)c1cnn(-c2ccccc2)c1NC(=O)c1cc2nc(-c3ccco3)cc(C(F)(F)Cl)n2n1	false
O=C(Nc1cccnn1)N1CCN(c2nccc(-c3ccc(F)c(F)c3)n2)CC1	false
COc1ccc(-c2ccc3c(N4CCOC[C@@H]4C)nc(N4CCOC[C@@H]4C)nc3n2)cc1CO	true
C[C@@]1(O)[C@H](O)[C@@H](CO)O[C@H]1n1ccc(N)nc1=O	true
CC1=C(CC/C(C)=C/C(=O)O)[C@@]2(C)CCCC(C)(C)C2CC1=O (some centres undefined)	false
COc1ccc(/C=C\c2cc(OC)c(OC)c(OC)c2)cc1O	true
CC1(C)Oc2ccc(C#N)cc2[C@@H](N2CCCC2=O)[C@@H]1O	false
CC(NC(=O)CC(=O)O)c1nc2ccccc2c(=O)[nH]1 (centres undefined)	false
CCN(CCO)CCCOc1ccc2c(Nc3cc(CC(=O)Nc4cccc(F)c4)[nH]n3)ncnc2c1	true
O=C(Nc1ccc(Oc2ccc(Cl)cc2)c(Cl)c1)c1cc(I)cc(I)c1O	false
Oc1cc(O)c2c(c1)O[C@H](c1ccc(O)c(O)c1)[C@H](O)C2	false
CC(C)CCC1(O)C(=O)C(C)(C)C(O[C@@H]2O[C@H](CO)[C@@H](O)[C@H](O)[C@H]2O)C(C)(C)C1O (some centres undefined)	false
Cc1ccc(S(=O)(=O)OCC(=O)Nc2ccc(C(=O)O)c(O)c2)cc1	false
CN1CCCN(C(=O)c2cccc(-c3ccc(/C=C4\C(=O)Nc5ccc(Cl)cc54)o3)c2)CC1	true
COc1cc(/C=C/C(=O)N2CCN(CC(=O)N3CCCC3)CC2)cc(OC)c1OC	false
c1ccc(-c2cc(CCC3CCNCC3)c3ccccc3n2)cc1	true
O=C1c2ccccc2C(=O)C1c1ccccc1	false
COC(=O)[C@]1(Cc2ccc(O)c(CC=C(C)C)c2)OC(=O)C(O)=C1c1ccc(O)cc1	true
O=C1NC(=O)C(c2ccccc2[N+](=O)[O-])=C1Nc1ccc(O)c(Cl)c1	true
CCOc1ccccc1C(N)=O	true
CC1(C)CCCC2(C)C(CO)C3CCC2C31 (centres undefined)	false
